- System: SN12C renal
- ASSAY OVERVIEW: NCI tumour cell line growth inhibition, 48 h
QUANTITY MEASURED: TGI

Sample records with TGI:
COMPOUND	QUANTITY MEASURED	RECORDED RESULT
CN(C)c1ccc(C=Nc2ccc(-c3nc4ccccc4o3)cc2)cc1	TGI	> 100 µM
O=Cc1cc(O)ccc1Br	TGI	> 100 µM
O=C(CCl)Nc1ccc(-c2nc3ccccc3s2)cc1	TGI	4.2 µM

Field: TGI. Fill in for each record below.
1. CC(C)=CCC/C(C)=C/CC/C(C)=C/C(O)c1ccccc1 (stereo unspecified)
2. N=C1SCCS1

a:
1: 33.9 µM; 2: > 100 µM

Field: TGI. Fill in for each record below.
1. Nc1ccc(C(=O)O)c2[nH]c3ccccc3c(=O)c12
2. O=c1[nH]cnc2c1nnn2C1C=C(CO)C(O)C1O (stereo unspecified)
3. Cc1ccc(CCCC(=O)O)cc1C
4. O=C1c2ccccc2-c2ccc(N(Cc3ccc(Br)cc3)Cc3ccc(Br)cc3)cc21
5. COc1ccc(C(=O)Nc2ccccc2C#N)cc1
6. COc1ccc2c(c1)C(=O)/C(=C/c1ccc(OCC(=O)c3ccc(Cl)cc3)cc1)O2
7. COc1ccc(C(=O)Nc2ccccc2)cc1[N+](=O)[O-]

a:
1. > 100 µM
2. > 100 µM
3. > 100 µM
4. > 100 µM
5. > 100 µM
6. 63.9 µM
7. > 100 µM

Field: TGI. Fill in for each record below.
1. COc1cccc(C2C3=C(COC3=O)N(CCO)c3cc4c(cc32)CCC4)c1 (stereo unspecified)
2. O=C(O)Cc1ccccc1
3. CC(=O)NNc1nc(C)c(C(/C=C/c2ccc3c(c2)OCO3)=N/NC(=O)c2ccncc2)s1
4. O=C1NC(c2ccccc2)C1N(Cc1ccccc1)Cc1ccccc1 (stereo unspecified)
5. COc1ccc(-n2c(-c3ccccc3)cc(-c3cccs3)c2-c2cccs2)cc1
6. Cn1cc(-c2nonc2-c2cn(C)c3ccc(Br)cc23)c2ccccc21

a:
1: > 32.6 µM; 2: > 2000 µM; 3: > 100 µM; 4: > 100 µM; 5: > 100 µM; 6: > 100 µM

Field: TGI. Fill in for each record below.
1. COC(=O)c1c(OC(C)=O)ccc2c1c1c(n2Cc2ccccc2)C(=O)c2ccccc2C1=O
2. Cn1cc(-c2csc(-c3cn(C)c4ncccc34)n2)c2ccccc21
3. COc1cc(O)c2c(=O)cc(C3(OC(C)=O)C=CC(OC4OC(CO)C(O)C(O)C4O)C=C3)oc2c1 (stereo unspecified)

a:
37.5 µM
> 100 µM
> 100 µM

----------
- Tested on: SF-295 CNS
- ASSAY OVERVIEW: NCI tumour cell line growth inhibition, 48 h; in the data active means GI50 below about 0.43 µM; inactive means the rest
Would you mind answering with one of these outcomes? active, inactive

Field: example entries. Status: answers known.
SMILES INPUT	LABEL VALUE
CC1(C)CCC(CN2CCN(c3ccc(C(=O)NS(=O)(=O)c4ccc(NCC5CCOCC5)c([N+](=O)[O-])c4)c(Oc4cnc5[nH]ccc5c4)c3)CC2)=C(c2ccc(Cl)cc2)C1	inactive
C[CH2][Sn]([CH2]C)([O]C(=O)c1cc(OC)c(OC)c(OC)c1)[O][Sn]([CH2]C)([CH2]C)[O]C(=O)c1cc(OC)c(OC)c(OC)c1	inactive
C[C@@H](Oc1cc(-n2cnc3ccc(OCC4CCN(C)CC4)cc32)sc1C(N)=O)c1ccccc1C(F)(F)F	active
CC[C@]12C=CCN3CC[C@]4(C(=C(C(=O)OC)C1)Nc1ccccc14)[C@@H]32	inactive
Cn1cc(-c2nonc2-c2cn(C)c3ccc(Br)cc23)c2ccccc21	inactive

q: Entry CCCCCCCCCCCCCCCc1ccc(C(=O)C[n+]2ccccc2)cc1 : call = ?
a: inactive

q: Entry CN(C)c1ccc(N=C(C#N)c2nc(N)nc(N3CCOCC3)n2)cc1 : call = ?
a: inactive

q: Entry CC(=O)[CH-]C(=O)c1ccccc1.CC(=O)[CH-]C(=O)c1ccccc1.[O-]Cc1cccs1.[O-]Cc1cccs1.[Ti+4] : call = ?
a: inactive
